Entries annotated with measured growth
system: NCI-H226 lung; assay: NCI-60 one-dose screen, 48 h (100 = growth as untreated, 0 = no growth, -100 = all killed); conditions: 10 µM unless noted
Compounds without any hit were thinned out: in the full panel of roughly 83,000, 20% have a hit.
The response must be a number in % with no trailing unit.

For orientation, consider the following solved cases.
compound=OB(O)c1cccc(-c2nc3ccc4[nH]ncc4c3c3c2CCCC3)c1F recorded_value=37.9
compound=COc1ccc(-c2cnoc2-c2ccc(OC)cc2O)cc1 recorded_value=78.8
compound=C=C1C(=O)O[C@H]2[C@H]1CC/C(Cn1cc(CNC(=O)/C=C/c3c[nH]c4ccccc34)nn1)=C\CC[C@@]1(C)O[C@@H]21 recorded_value=92.5
compound=C=C[C@@H]1C[C@@H]2Cc3c(C)cc(C)cc3N1O2 recorded_value=95.5

QUERY: Quick one: growth of COc1cccc(-c2cc3c(O)cc(C#N)cc3[nH]2)c1 ?
RESULT: 101

QUERY: What value of growth has been recorded for this entry: CC(C)NCCCNC1=C(Cl)C(=O)c2ccccc2C1=O
RESULT: 93.1

QUERY: Endpoint output: growth of COc1ccc(-c2cn(-c3cccc(C(=O)/C=C/c4cc(OC)c(OC)c(OC)c4)c3)c(=O)[nH]2)cc1OC . Value?
RESULT: 87.9

QUERY: State the recorded growth for this entry: Cc1ccc(CSC(=N)N)cc1C
RESULT: 104

QUERY: # lookup: growth of Cc1ccc(-c2nc(C#N)c(S(=O)(=O)n3nc(-c4ccccc4)cc3N)o2)cc1
RESULT: 78.3

QUERY: I'd like to know its growth. The compound in question is OC(c1cc2cc(Br)ccc2c2cc(Br)ccc12)C1CCCCN1 (stereo unspecified)
RESULT: -70.1

----------
test system: OVCAR-5 ovarian; experiment: NCI-60 one-dose screen, 48 h (100 = growth as untreated, 0 = no growth, -100 = all killed); conditions: 10 µM unless noted
The panel holds about 83,000 compounds, 20% with a hit somewhere; the sample as a whole holds those more often. Activity calls are given as the source filed them. Rule for the calls: active = growth percent below 10; inactive = the rest.
readout.kind: growth

molecule=COc1cc(/C=C/c2cc(/C=C/c3ccc(O)c(OC)c3)n(C(N)=O)n2)ccc1O assay_target="OVCAR-5 ovarian" readout_kind=growth recorded_value="-30.7% (active)"
molecule=c1ccc(-c2nnc(-c3ccccn3)s2)nc1 assay_target="OVCAR-5 ovarian" readout_kind=growth recorded_value="92.2% (inactive)"
molecule="O=C1Nc2ccc(Cl)cc2C12Nc1cc(Cl)ccc1S2 (stereo not given)" assay_target="OVCAR-5 ovarian" readout_kind=growth recorded_value="113% (inactive)"

QUERY: Returns the measured growth for the input molecule. Input: CN(C)CCCC(C#N)c1ccccc1 (stereo not given)
RESULT: 117% (inactive)

QUERY: Give its growth value. Item: COc1cccc(-c2cc3c(O)cc(C#N)cc3[nH]2)c1
RESULT: 94.7% (inactive)

----------
test system: SF-268 CNS; assay: NCI-60 one-dose screen, 48 h; details: 10 µM unless noted
The panel holds about 83,000 compounds, 20% with a hit somewhere; the sample as a whole holds those more often. Active and inactive are the calls of the source. The calls were made as follows: active = growth percent below 10; inactive = the rest.
Lab note: assign the record to one of 1.0 (active), 0.0 (inactive)

Would you please look over these solved cases?
compound="CC12CCC3C4(C)COC(c5ccco5)OC4CCC3(C)C1CC(C1=CCOC1=O)O2 (stereo not given)" assigned_category=0.0
compound=C/C(=N/NC(=S)Nc1ccccc1)c1nc2ccc(Cl)cc2[nH]1 assigned_category=1.0

QUERY: Assay outcome for CCOC(=O)C1C(=O)C=C(c2ccc(OC)cc2)CC1c1sc(N(C)Cc2ccccc2)nc1Cl (stereo not given) : what was it?
RESULT: 0.0

QUERY: # lookup: test call for Cc1ccc(-c2nc(C#N)c(S(=O)(=O)n3nc(-c4ccccc4)cc3N)o2)cc1
RESULT: 0.0

QUERY: Per the records of this test, what outcome belongs to CCn1c2ccccc2c2cc(NC(=O)Nc3ccc([N+](=O)[O-])cc3C)ccc21 ?
RESULT: 0.0

QUERY: Check the results log: what was the call for COc1ccc(C2NN=C3c4ccccc4CCC32)cc1 (stereo not given) ?
RESULT: 0.0

QUERY: Which outcome was entered for the compound COc1ccc(-c2c(-c3cc(OC)c4c(c3)OCO4)noc2N)cc1 in this test?
RESULT: 0.0

QUERY: Hey, what did the test say about C=C(C)[C@@H]1CC[C@]2(C(=O)O)CC[C@]3(C)[C@H](CC[C@@H]4[C@@]5(C)C[C@@H](CC#Cc6ccc(C(F)(F)F)cc6)[C@H](O)C(C)(C)[C@@H]5CC[C@]43C)[C@@H]12 ?
RESULT: 0.0

QUERY: Assay outcome for CCCCCCN1CSC(=S)N(CCCCCC)C1 : what was it?
RESULT: 0.0

QUERY: Test call, this compound: COc1ccc(-c2cnnn2-c2nonc2-n2cccc2)cc1OC
RESULT: 0.0

QUERY: State the result this test recorded for Cc1ccc2ccccc2c1C[n+]1ccccc1 .
RESULT: 0.0

QUERY: Identify the outcome logged in this assay for the compound shown: CC(C)(C)n1cc(-c2ccnc(NCCNS(=O)(=O)c3ccc(C(F)(F)F)cc3)c2)c(-c2cccc(O)c2)n1
RESULT: 0.0

QUERY: Record request — test call for OB(O)c1cccc(-c2nc3ccc4[nH]ncc4c3c3c2CCCC3)c1F
RESULT: 0.0

QUERY: // return assay outcome for CCOC(=O)c1cn2c3c(cc(C)cc3c1=O)C(=O)/C(=C/c1ccccc1)C2
RESULT: 0.0

QUERY: # lookup: test call for CC(C)(C)n1cc(-c2ccnc(NCCCNS(=O)(=O)c3ccc(C(F)(F)F)cc3)c2)c(-c2cccc(O)c2)n1
RESULT: 0.0

QUERY: Short answer needed: outcome of this test for CCc1ccc(-c2ccc(=O)n(-c3ccc(S(N)(=O)=O)cc3)n2)cc1 ?
RESULT: 0.0

QUERY: Status in this test for CCO/C=N/C1=C(C#N)C(c2ccc(Cl)cc2)c2c(c3ccc(C)cc3[nH]c2=O)O1 (stereo not given) ?
RESULT: 0.0

QUERY: What was the test verdict on O=c1cc/c(=N\Nc2ccccc2)c(=O)/c1=N/Nc1ccccc1 ?
RESULT: 0.0

QUERY: I'd appreciate the recorded outcome for Cc1nc2ncccc2nc1Nc1ccc(S(=O)(=O)Nc2cncs2)cc1 from this test.
RESULT: 0.0

QUERY: Identify the outcome logged in this assay for the compound shown: Clc1cc(Cl)c2nc(-c3ccc(-c4ccc(/C=N/NC5=NCCN5)cc4)s3)cn2c1
RESULT: 0.0

----------
system: HCC-2998 colon; experiment: NCI-60 one-dose screen, 48 h (100 = growth as untreated, 0 = no growth, -100 = all killed); settings: 10 µM unless noted
About 83,000 compounds went through this panel and 20% of them were active in at least one assay; those are over-represented in the sample as a whole.
readout.kind: growth (%)
Number in %, nothing else.

Recorded results for 3 compounds are shown here.
compound=O=c1cc/c(=N\Nc2ccccc2)c(=O)/c1=N/Nc1ccccc1 assay_target="HCC-2998 colon" readout_kind=growth recorded_value=99
compound=CCCCN(CCCC)C(=N)c1ccnc2ccccc12 assay_target="HCC-2998 colon" readout_kind=growth recorded_value=102
compound=O=C(Nc1ccncc1)C(=O)c1cn(S(=O)(=O)c2ccc(Br)cc2)c2ccccc12 assay_target="HCC-2998 colon" readout_kind=growth recorded_value=72

QUERY: Which value of growth has been reported for CCOC(=O)c1ccc2c(c1)nc(-c1ccc(OCc3ccccc3)c(OC)c1)n2-c1cc(C(C)(C)C)[nH]n1 in the records?
RESULT: 91

QUERY: Consider the compound COc1ccc2c(c1)[nH]c(=O)c1c3cc(OC)ccc3cn21 and give its measured growth.
RESULT: 32.1

QUERY: Fill blank: measured growth of the compound O=C(NCCNc1nccc(-n2ccc3cccnc32)n1)c1ccc(C(F)(F)F)cc1 is ____.
RESULT: 120

QUERY: Record request: growth value, item CCN1CCN(c2nc(NNC(=O)c3ccccc3)nc(N3CCN(C(c4ccccc4)c4ccccc4)CC3)n2)CC1
RESULT: 31.7

QUERY: So what does the record say about growth for c1cc2[nH]ncc2cc1-c1nc2ccc3[nH]ncc3c2c2c1CCC2 ?
RESULT: 73.7

QUERY: Which growth value belongs to Cc1cc(C(C)(C)C)ccc1S ?
RESULT: 112

QUERY: Value lookup for growth; key = CCCCCCCCCCCCNC(=O)[C@H]1CSC(c2cc3ccccc3s2)N1 (stereo not given in full)
RESULT: 61.4

----------
test system: NCI-H460 lung; experiment: NCI-60 one-dose screen, 48 h; conditions: 10 µM unless noted
About 83,000 compounds went through this panel and 20% of them were active in at least one assay; those are over-represented in the sample as a whole. Activity calls are given as the source filed them. The calls were made as follows: active = growth percent below 10; inactive = the rest.
Would you mind answering with one of these outcomes? active, inactive

Previously resolved entries follow.
molecule="O=C(Oc1ccccc1[N+](=O)[O-])C1CCCN1C(=O)OCc1ccccc1 (centres undefined)" assigned_category=inactive
molecule=C=C(C)[C@@H]1CC[C@]2(C(=O)N3CCNCC3)CC[C@]3(C)[C@H](CC[C@@H]4[C@@]5(C)C/C(=C/c6ccncc6)C(=O)C(C)(C)[C@@H]5CC[C@]43C)[C@@H]12 assigned_category=inactive

QUERY: Tell me the assay call for COc1cc2c(cc1OCCCN1CCN(CCCn3c4ccccc4c4ccccc43)CC1)N=C[C@@H]1CCCN1C2=O please.
RESULT: active

QUERY: Tell me the assay call for COc1ccc(/C=C/c2c(C(C)=O)c(C)nc3ccccc23)cc1 please.
RESULT: inactive

QUERY: Which outcome did this test record for the molecule C=C[C@@H]1C[C@@H]2Cc3ccccc3N1O2 ?
RESULT: inactive

QUERY: How did this test come out for C=C1CCC2C3(C)COC(c4ccc(N(C)C)cc4)OC3CCC2(C)C1C/C=C1/C(=O)OCC1O (centres undefined) ?
RESULT: inactive

QUERY: What call does the record list for N[C@H]1CN(C(=O)c2cc3cc(Br)c(F)c(F)c3[nH]2)C[C@@H]1O ?
RESULT: inactive

QUERY: Any idea what this test logged for COc1cc(NC(N)=NCCC(C)(C)c2ccc(C(F)(F)F)cc2)ncc1C#N ?
RESULT: active

QUERY: Give the logged outcome of this assay for the following molecule: C=C1CCC2C(C)(CO)C(O)CCC2(C)C1CC(NCc1ccccc1)C1=CCOC1=O (centres undefined)
RESULT: inactive
